target: BRAF G466V (Homo sapiens, UniProt P15056, G466V); construct: expressed in transfected cells; assay: Cellular assay of target protein degradation, T-Rex 293 cells stably transfected with HA-BRAF G466V (HA immunofluorescence, high content imaging); assay type: cell-based; settings: maximum degradation observed, T-Rex 293 HA-BRAF G466V
Sequence (P15056 whole entry G466V): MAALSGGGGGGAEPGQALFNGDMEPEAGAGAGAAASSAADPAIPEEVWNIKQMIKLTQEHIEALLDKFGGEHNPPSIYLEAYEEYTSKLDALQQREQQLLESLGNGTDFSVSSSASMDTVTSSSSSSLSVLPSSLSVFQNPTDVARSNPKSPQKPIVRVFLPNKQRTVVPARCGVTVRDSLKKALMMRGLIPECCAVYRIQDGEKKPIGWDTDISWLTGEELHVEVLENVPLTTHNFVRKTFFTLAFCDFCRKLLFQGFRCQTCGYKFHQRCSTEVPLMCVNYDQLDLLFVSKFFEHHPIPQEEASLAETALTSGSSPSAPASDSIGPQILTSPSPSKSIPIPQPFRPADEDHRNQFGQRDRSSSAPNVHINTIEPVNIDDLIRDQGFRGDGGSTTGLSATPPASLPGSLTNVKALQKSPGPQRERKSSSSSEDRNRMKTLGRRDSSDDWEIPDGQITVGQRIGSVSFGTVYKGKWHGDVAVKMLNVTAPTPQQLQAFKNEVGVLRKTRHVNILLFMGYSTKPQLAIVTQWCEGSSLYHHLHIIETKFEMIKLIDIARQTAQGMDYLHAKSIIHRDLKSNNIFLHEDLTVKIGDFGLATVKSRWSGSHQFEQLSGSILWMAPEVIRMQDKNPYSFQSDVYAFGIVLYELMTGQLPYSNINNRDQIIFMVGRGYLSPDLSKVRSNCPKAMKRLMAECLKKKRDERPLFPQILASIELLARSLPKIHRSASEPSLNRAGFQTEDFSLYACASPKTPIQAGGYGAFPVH
Parameter: Dmax

Field request: Dmax | item: O=C1CCC(NC(=O)c2ccc(N3CCC(CN4CC5(C4)CN(c4ccc(-c6cnc7[nH]cc(C(=O)c8c(F)ccc(NS(=O)(=O)N9CC[C@@H](F)C9)c8F)c7c6)cc4)C5)CC3)cn2)C(=O)N1 (stereo partly shown) < 35%

Field request: Dmax | item: O=C1CCC(N2Cc3cc(N4CCN(CCc5ccc(-c6cnc7[nH]cc(C(=O)c8c(F)ccc(NS(=O)(=O)N9CC[C@@H](F)C9)c8F)c7c6)cc5)CC4)c(F)cc3C2=O)C(=O)N1 (stereo partly shown) > 70%

Field request: Dmax | item: CN(CCN1CCN(c2ccc(-c3cnc4[nH]cc(C(=O)c5c(F)ccc(NS(=O)(=O)N6CC[C@@H](F)C6)c5F)c4c3)cc2)CC1)[C@H]1CC[C@H](Oc2ccc3c(c2)CN(C2CCC(=O)NC2=O)C3=O)CC1 (stereo partly shown) 35 to 70%

Field request: Dmax | item: Cn1c(=O)n(C2CCC(=O)NC2=O)c2cccc(C3CCN(CC4CCN(c5ccc(-c6cnc7[nH]cc(C(=O)c8c(F)ccc(NS(=O)(=O)N9CC[C@@H](F)C9)c8F)c7c6)cc5)CC4)CC3)c21 (stereo partly shown) > 70%

###

Please respond with reported DC50 for every item in the list.
molecular target: BRAF V600E (Homo sapiens, UniProt P15056, V600E); construct: expressed in transfected cells; test: Cellular assay of target protein degradation, T-Rex 293 cells stably transfected with HA-BRAF_V600E (HA immunofluorescence, high content imaging); assay type: cell-based; settings: half maximal degradation, T-Rex 293 HA-BRAF V600E; read-out: BRaf V600E DC50
Sequence (P15056 whole entry V600E): as the sequence (P15056 whole entry G466V) above, with V466G, V600E counted along it

Field request: DC50 | item: COc1cc(N2CCN(CC3CCN(c4ccc(-c5cnc6[nH]cc(C(=O)c7c(F)ccc(NS(=O)(=O)N8CC[C@@H](F)C8)c7F)c6c5)cc4)CC3)CC2)ccc1C(=O)NC1CCC(=O)NC1=O (some centres unmarked) < 5 nM

Field request: DC50 | item: `O=C1CC[C@H](N2Cc3cc(CC[C@@H](O)CN4CC5(C4)CN(c4ccc(-c6cnc7[nH]cc(C(=O)c8c(F)ccc(NS(=O)(=O)N9CC[C@@H](F)C9)c8F)c7c6)cc4)C5)ccc3C2=O)C(=O)N1` 5 to 50 nM

Field request: DC50 | item: O=C1CCC(N2Cc3cc(N4CCN(C[C@H](O)Cc5ccc(-c6cnc7[nH]cc(C(=O)c8c(F)ccc(NS(=O)(=O)N9CC[C@@H](F)C9)c8F)c7c6)cc5)CC4)ccc3C2=O)C(=O)N1 (some centres unmarked) 5 to 50 nM

Field request: DC50 | item: `O=C1CC[C@H](NC(=O)c2ccc(N3CCN(CC4CCN(c5ccc(-c6cnc7[nH]cc(C(=O)c8c(F)ccc(NS(=O)(=O)N9CC[C@@H](F)C9)c8F)c7c6)cc5)CC4)CC3)cc2F)C(=O)N1` 5 to 50 nM

Field request: DC50 | item: `O=C1CC[C@H](N2Cc3cc(CC[C@H](O)CN4CC5(C4)CN(c4ccc(-c6cnc7[nH]cc(C(=O)c8c(F)ccc(NS(=O)(=O)N9CC[C@@H](F)C9)c8F)c7c6)cc4)C5)ccc3C2=O)C(=O)N1` 5 to 50 nM

All figures here come from patent US12180193B2.
